molecular target: CSL (RBPJ) (Mus musculus, UniProt P31266 53-474); assay: ITC; K = 2.2 +/- 1.4 x10^7 M-1; n=3; ITC: 50 mM sodium phosphate pH 6.5, 150 mM NaCl, 10 C (10 uM CSL in cell, 100 uM DNA in syringe). EMSA: 150 mM KCl, 50 mM Tris pH 7.4, 1 mM DTT, 2% polyvinyl alcohol, 30 ng/ul poly(dI-dC), on ice 30 min, 25 fmol biotin probe in 5 ul; details: protein: recombinant; tags: GST tag cleaved off
Sequence (P31266 53-474): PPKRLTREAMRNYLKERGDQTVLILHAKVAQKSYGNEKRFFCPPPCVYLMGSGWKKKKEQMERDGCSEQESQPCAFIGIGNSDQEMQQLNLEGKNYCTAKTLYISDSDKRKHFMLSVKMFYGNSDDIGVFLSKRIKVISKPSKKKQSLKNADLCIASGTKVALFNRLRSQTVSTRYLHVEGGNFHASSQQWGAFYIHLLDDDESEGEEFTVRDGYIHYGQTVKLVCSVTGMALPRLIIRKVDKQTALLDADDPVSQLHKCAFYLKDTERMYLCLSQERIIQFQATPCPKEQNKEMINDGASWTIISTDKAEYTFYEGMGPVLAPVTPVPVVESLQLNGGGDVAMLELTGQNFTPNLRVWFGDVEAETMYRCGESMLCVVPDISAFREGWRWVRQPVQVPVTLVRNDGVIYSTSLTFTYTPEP
readoutKind: pKd
# pKd = -log10(concentration in molar units)

Item ITC duplex CGTGGGAA (dsDNA) DNA 1: GTTACCGTGGGAAAGAAAG DNA 2: CTTTCTTTCCCACGGTAAC has what recorded pKd?
7.22
